# study-target: full-length human FXR (Homo sapiens)
# Sequence (Q96RI1 1-472 isoform Q96RI1-2): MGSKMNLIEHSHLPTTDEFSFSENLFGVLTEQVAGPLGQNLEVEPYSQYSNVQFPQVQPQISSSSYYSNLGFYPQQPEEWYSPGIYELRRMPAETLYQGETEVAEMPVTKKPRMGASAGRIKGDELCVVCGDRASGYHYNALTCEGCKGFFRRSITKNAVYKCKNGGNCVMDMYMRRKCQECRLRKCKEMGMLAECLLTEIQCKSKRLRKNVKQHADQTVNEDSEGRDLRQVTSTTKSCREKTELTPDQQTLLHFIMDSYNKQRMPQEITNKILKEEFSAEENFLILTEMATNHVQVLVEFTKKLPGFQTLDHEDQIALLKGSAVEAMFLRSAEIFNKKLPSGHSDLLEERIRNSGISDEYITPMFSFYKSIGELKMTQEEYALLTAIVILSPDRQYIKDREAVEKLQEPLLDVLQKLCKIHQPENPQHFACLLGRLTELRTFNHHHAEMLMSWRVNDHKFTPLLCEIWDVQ
# Sequence (P19793 1-462 partner): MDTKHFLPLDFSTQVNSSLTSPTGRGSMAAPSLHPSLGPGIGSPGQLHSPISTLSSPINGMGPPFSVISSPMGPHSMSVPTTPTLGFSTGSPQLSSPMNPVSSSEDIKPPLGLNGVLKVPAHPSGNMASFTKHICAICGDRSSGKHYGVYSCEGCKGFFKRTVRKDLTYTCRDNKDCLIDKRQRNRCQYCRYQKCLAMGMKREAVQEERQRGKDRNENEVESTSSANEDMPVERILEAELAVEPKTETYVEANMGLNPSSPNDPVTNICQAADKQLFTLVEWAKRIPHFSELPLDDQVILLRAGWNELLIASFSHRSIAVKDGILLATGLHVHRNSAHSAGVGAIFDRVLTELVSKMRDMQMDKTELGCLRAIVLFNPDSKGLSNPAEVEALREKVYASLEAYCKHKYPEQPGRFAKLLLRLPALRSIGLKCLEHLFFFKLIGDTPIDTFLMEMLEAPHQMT
# protocol-notes: CAT reporter assay in CV-1 cells transfected with FXR, human RXRα and FXREhsp27-tk-CAT
# run-conditions: 100 μM bile acid or farnesol, 10 μM steroid or TTNPB
endpoint-label: activation of full-length human FXR

C[C@H](CCC(=O)O)[C@H]1CC[C@H]2[C@@H]3[C@@H](O)[C@@H](O)[C@@H]4C[C@H](O)CC[C@]4(C)[C@H]3CC[C@]12C; no activation
C[C@H](CCC(=O)O)[C@H]1CC[C@H]2[C@@H]3[C@H](O)[C@@H](O)[C@@H]4C[C@H](O)CC[C@]4(C)[C@H]3CC[C@]12C; no activation
